Values from patent US20150148256A1

subjectOfTest: ABCG2 (Homo sapiens)
Sequence (Q9UNQ0 whole entry): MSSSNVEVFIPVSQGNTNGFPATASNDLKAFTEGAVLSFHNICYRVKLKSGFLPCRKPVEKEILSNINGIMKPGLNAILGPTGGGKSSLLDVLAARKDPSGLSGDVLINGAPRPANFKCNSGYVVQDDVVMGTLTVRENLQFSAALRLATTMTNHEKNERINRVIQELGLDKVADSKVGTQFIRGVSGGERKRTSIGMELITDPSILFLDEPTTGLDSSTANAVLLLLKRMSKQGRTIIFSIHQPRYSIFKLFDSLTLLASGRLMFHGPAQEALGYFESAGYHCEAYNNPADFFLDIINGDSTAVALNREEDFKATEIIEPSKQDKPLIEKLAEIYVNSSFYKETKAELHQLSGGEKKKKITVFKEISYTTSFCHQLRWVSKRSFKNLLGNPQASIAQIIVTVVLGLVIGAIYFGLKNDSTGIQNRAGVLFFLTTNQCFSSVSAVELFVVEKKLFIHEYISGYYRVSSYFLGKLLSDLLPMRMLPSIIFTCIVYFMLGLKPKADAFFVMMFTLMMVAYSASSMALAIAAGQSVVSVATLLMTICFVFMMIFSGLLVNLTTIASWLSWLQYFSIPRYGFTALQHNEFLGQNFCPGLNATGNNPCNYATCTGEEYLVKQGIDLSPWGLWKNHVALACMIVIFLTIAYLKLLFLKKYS
assayDetails: Bioluminescence imaging (BLI) assay in HEK293/ABCG2/fLuc cells
experimentalContext: human, 40 min, 17 μM
Structures can show the parent of a compound that is named as a salt.
endpointName: Fold (BLI enhancement, S/B ratio over control) (fold)
Number only, in fold; omit the unit.

COc1ccccc1OCCNCC(O)COc1cccc2[nH]c3ccccc3c12 (stereo not shown); 10.0

Would you mind telling me what Fold (BLI enhancement, S/B ratio over control) value was observed for COc1ccc(CCN2CCC(Nc3nc4ccccc4n3Cc3ccc(F)cc3)CC2)cc1 ?
2.8

Would you mind telling me what Fold (BLI enhancement, S/B ratio over control) value was observed for CCOc1ccc(Cc2nccc3cc(OCC)c(OCC)cc23)cc1OCC [ethaverine hydrochloride] ?
2.6

Would you mind telling me what Fold (BLI enhancement, S/B ratio over control) value was observed for C=C1C[C@@H]2[C@H](CC[C@]3(C)C(=O)CC[C@@H]23)[C@@]2(C)C=CC(=O)C=C12 ?
2.1
